Test system: 439559-082-T-J2-PDC spheroids viability
protocol_details: Anticancer human tumor 439559-082-T-J2-PDC patient-derived colon adenocarcinoma cell line growth inhibition [GQUAD]
condition_parameters: second compound 0.0316 µM; first compound 0.1 µM; active compounds read low
Text: DNA G-quadruplex Stabilizer Agents in Combinations in Complex Spheroids A high-throughput screen of multi-cell type tumor spheroids was designed to identify active combinations of DNA G-quadruplex stabilizer agents and targeted small molecules. […] Compounds. […] If the clinical Cmax for an agent had not been determined, the highest concentration tested was 10 microM. […]
viability, T/C values, listed per item

[
  {
    "molecule": "O=c1[nH]cc(F)c(=O)[nH]1 + Cc1[nH]c2ccc(F)cc2c1-c1nc2c3cccnc3c3ncccc3c2[nH]1",
    "assay_system": "439559-082-T-J2-PDC spheroids viability",
    "unit": "%",
    "viability, T/C": 95.5
  },
  {
    "molecule": "COc1cc(C2c3cc4c(cc3C(OC3OC5COC(C)OC5C(O)C3O)C3COC(=O)C23)OCO4)cc(OC)c1O (stereo not drawn) + Cc1cnc(CNC(=O)c2c(=O)c3ccc(N4CCCN(C)CC4)nc3n3c2sc2ccccc23)cn1",
    "assay_system": "439559-082-T-J2-PDC spheroids viability",
    "unit": "%",
    "viability, T/C": 99.9
  },
  {
    "molecule": "C=CCn1c(=O)c2cnc(Nc3ccc(N4CCN(C)CC4)cc3)nc2n1-c1cccc(C(C)(C)O)n1 + Cc1[nH]c2ccc(F)cc2c1-c1nc2c3cccnc3c3ncccc3c2[nH]1",
    "assay_system": "439559-082-T-J2-PDC spheroids viability",
    "unit": "%",
    "viability, T/C": 92.7
  }
]

* * *

viability, T/C values, listed per item
System: 439559-082-T-J2-PDC spheroids viability
protocol_details: Anticancer human tumor 439559-082-T-J2-PDC cell line growth inhibition [GQUAD];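 further: spheroids exposed to the agents for 7 days before readout; percent of luminescence signal in DMSO vehicle wells taken as 100% viability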
condition_parameters: second compound 1 µM; first compound 0.316 µM; active compounds read low

[
  {
    "compound": "Nc1ccn(C2OC(CO)C(O)C2(F)F)c(=O)n1 (stereo not given) + Cc1[nH]c2ccc(F)cc2c1-c1nc2c3cccnc3c3ncccc3c2[nH]1",
    "assay_system": "439559-082-T-J2-PDC spheroids viability",
    "viability, T/C [%]": 50.4
  },
  {
    "compound": "Cc1[nH]c2ccccc2c1CCNCc1ccc(/C=C/C(=O)NO)cc1 + Cc1cnc(CNC(=O)c2c(=O)c3ccc(N4CCCN(C)CC4)nc3n3c2sc2ccccc23)cn1",
    "assay_system": "439559-082-T-J2-PDC spheroids viability",
    "viability, T/C [%]": 55.7
  },
  {
    "compound": "CC(=O)O[C@H]1C(=O)[C@@]2(C)[C@H]([C@H](OC(=O)c3ccccc3)[C@]3(O)C[C@H](OC(=O)[C@H](O)[C@@H](NC(=O)c4ccccc4)c4ccccc4)C(C)=C1C3(C)C)[C@]1(OC(C)=O)CO[C@@H]1C[C@@H]2O + CN(C)c1ccc(Nc2c3ccc(NC(=O)CCN4CCCC4)cc3nc3cc(NC(=O)CCN4CCCC4)ccc23)cc1",
    "assay_system": "439559-082-T-J2-PDC spheroids viability",
    "viability, T/C [%]": 70
  },
  {
    "compound": "CC1COCCN1c1cc(-c2ccnn2C)c2ccnc(-c3ccn[nH]3)c2n1 (stereo not given) + Cc1[nH]c2ccc(F)cc2c1-c1nc2c3cccnc3c3ncccc3c2[nH]1",
    "assay_system": "439559-082-T-J2-PDC spheroids viability",
    "viability, T/C [%]": 46
  },
  {
    "compound": "Cn1ncnc1[C@H]1c2n[nH]c(=O)c3cc(F)cc(c23)N[C@@H]1c1ccc(F)cc1 + CN(C)c1ccc(Nc2c3ccc(NC(=O)CCN4CCCC4)cc3nc3cc(NC(=O)CCN4CCCC4)ccc23)cc1",
    "assay_system": "439559-082-T-J2-PDC spheroids viability",
    "viability, T/C [%]": 92.5
  }
]
